The origin of these recorded values is PubChem BioAssay AID1347423.

Run description: Resistance to Poly (ADP-Ribose) Polymerase inhibitor: Gene Identification via Genome-wide siRNA Screen
Assay setup: mouse BRCA2 R2336H ES cells, olaparib, CellTiter-Glo viability; stronger effect = higher value
The campaign covered roughly 52,000 sequences. About 210 (0.4%) were called active. This excerpt belongs to a sample that is enriched for actives.
Here the recorded z-score is given for each entry.
Metric: z-score

1. CCUGAUAUAUGACUUUGGCTT against Ntf5
-0.0586 (inactive)
2. CCGACAAAUAAAGGCUUUATT against Ddx52
-0.0103 (inactive)
3. GGGACUUUCAUAAUGCCAGTT against Snip1
0.733 (inactive)
4. GGUGGUCUGGUUCAAGGAUTT against Mylk
-0.558 (inactive)
5. GCUGUUGGUUUCUACUCACTT against Adam21
1.43 (active)
6. GGACACAAAUGACAUCAACTT against Ptpns1
-0.156 (inactive)
7. GGCUAUAUCAAUGAAUUUGTT against Polr3b
0.129 (inactive)
8. CGGACAGAUACAAUAGCUATT against BC057627
3.74 (active)
9. GGGAGCUCUAAAAAAAGUGTT against Olfr390
0.0742 (inactive)
